Test system: c-Src SH2;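 also: peptide library displayed on the E. coli surface as eCPX fusions, selected cells deep-sequenced, score is each peptide's frequency after selection divided by its frequency in the input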
Protocol details: SH2 binding enrichment of the phosphorylated peptide, bacterial display (enrichment ratio); higher = better substrate or ligand; peptides without Tyr show the background
The following sequences are listed with their measured SH2 binding enrichment values.

Primary sequence | SH2 binding enrichment
PQGVGYPQQQQ [EP300_Y2219_P2221Q] | 0.249
KIIRRYVSSEG [ANK2_Y3907] | 0.421
ALAHKYHGGGG [HBB_Y146] | 0.43
GNLLIYTELGK [HGD_Y166_F169L] | 0.381
EGTATYAAAVL [JUP_Y644] | 0.493
QKNVSYVSRVS [TASOR_Y1043_T1046R] | 0.369
MPPHICAITDT [MYH9_Y151_Y151C] | 0.657
IDAVCYFRMEN [NPHS2_Y194_I192V_YF] | 0.545
EVVGRYSLHNA [MLH1_Y183_V185L] | 0.488
PLFKICVAELI [MRPL28_Y230_Y230C] | 0.496
FGSIMYEFVGK [SLC18A1_Y251_V249I] | 0.676
PESCLYKESWI [IQGAP2_Y630_L635I] | 0.532
QLCVSYPGGYT [PROS1_Y259_N258S] | 0.541
FISVGYVDGTQ [HLA-B_Y51_D54G] | 0.527
